Below: a set of entries, each annotated with reported dAMP.
Tested on: P. falciparum 3D7 trophozoites
Method summary: Metabolomic fingerprint profiling LC-MS
Type: cell-based, Plasmodium falciparum
Conditions used: S2 Table Metabolomics; metabolite dAMP
Number, no unit, nothing else.

CCC(c1ccccc1)c1nn2c(-c3cccs3)nnc2s1 (stereo not shown)	0.5954
CCOC(=O)c1cn(CC)c2cc(N3CCCCC3)c(F)cc2c1=O	0.7737
Cc1ccc(Nc2nc(-c3ccccn3)cs2)cc1	-0.05008
CSC1=NC(=Nc2c(C)cccc2C)C2(CCC(C(C)(C)C)CC2)N1c1ccc(Cl)cc1 (stereo not shown)	-1.695
c1ccc(Cn2c(N=Nc3c(Nc4ccccc4)ccc4ccccc34)nc3ccccc32)cc1	0.6013
O=C1C(O)=C([C@H]2CC[C@H](c3ccc(Cl)cc3)CC2)C(=O)c2ccccc21 [Atovaquone, reference compound]	-0.09487
Cc1cc(Nc2ccc(Cl)cc2)n2nc(C(F)(F)F)nc2n1	-1.417
Cc1cc(C)c2c(c1)OCN(Cc1ccccc1Cl)C2	-0.9651

The reported dAMP of the compound `Cc1cc(C=C2SC(=Nc3ccccc3)N(C3CCCC3)C2=O)c(C)n1-c1ccc(Cl)cc1` was 0.03218

----------
Tested on: P. falciparum 3D7 trophozoites
Method summary: Metabolomic fingerprint profiling LC-MS
Type: cell-based, Plasmodium falciparum
Conditions used: metabolite cytidine, S2 Table Metabolomics
Below: a set of entries, each annotated with reported cytidine.
Number, no unit, nothing else.

# count of solved cases: 10
Cc1ccc(-c2cc3nc4c(c(O)n3n2)CCCC4)cc1	0.2747
CCOC(=O)c1ccc2nc(-c3ccccc3)cc(O)c2c1	0.9143
O=C(CSc1nccn2nc(-c3ccccc3)cc12)Nc1cc(C(F)(F)F)ccc1Cl	0.4629
COc1ccc(NC(=O)C2c3ccccc3C(=O)N(CC(C)C)C2c2cccs2)cc1Cl (centres unmarked)	0.1777
COc1cc(OC)c(N(C)C(=O)c2cc3c(s2)-c2ccccc2S(=O)(=O)C3)cc1Cl	0.3423
c1ccc2cc3c(Nc4ccc(N5CCOCC5)cc4)ccnc3cc2c1	-0.002725
COc1ccc(-c2nc3cc(Cc4ccc5[nH]c(-c6ccc(OC)cc6)nc5c4)ccc3[nH]2)cc1	0.03237
Cc1cc(NCCN2CCCCC2)c2ccc3ccccc3c2n1	-0.1848
CSC1=NC(=Nc2c(C)cccc2C)C2(CCC(C(C)(C)C)CC2)N1c1ccc(Cl)cc1 (centres unmarked)	-0.05016
CCN(CC)CCNc1ccnc2cc(Cl)ccc12	0.4735

Continue with the next compound.
The reported cytidine of the compound CCOC(=O)C1=C(c2ccccc2)N=c2sc(=Cc3cc(C)n(-c4ccc(F)cc4)c3C)c(=O)n2C1c1cccc(OC)c1OC (centres unmarked) was 0.1663

----------
System: P. falciparum 3D7 trophozoites
Method summary: Metabolomic fingerprint profiling LC-MS
Format: cell-based, Plasmodium falciparum
Conditions used: metabolite a-ketoglutarate, S2 Table Metabolomics
Experimental endpoint: a-ketoglutarate
Number, no unit, nothing else.

Cc1ccc(N2C3c4ccccc4N(S(=O)(=O)c4ccc(C)cc4)C2c2ccccc2N3S(=O)(=O)c2ccc(C)cc2)cc1 [MMV007160]	0.5892
Cc1cc(NCCN2CCCCC2)c2ccc3ccccc3c2n1 [MMV006203]	-0.4253
Cc1ccc(N2C(=O)C3C(C2=O)C2(c4ccccc4)C(=O)C3(c3ccccc3)C(c3ccccc3)=C2c2ccccc2)cc1 (stereo not shown) [MMV666062]	-0.4814

The reported a-ketoglutarate of the compound COc1cccc(C=Cc2nc(=O)c3ccccc3o2)c1OC [MMV666693] was -0.04301
